Each item that follows carries a reported IC50.
target: hA2a/CHO (Homo sapiens (Human), UniProt P29274); assay: cAMP inhibition assay in hA2a/CHO cells, 10 μM adenosine; type: cell-based; conditions: read-out: cAMP & FLIPR IC50 (nM) hA2a;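 note: compounds added to cells 30 min ahead of adenosine, then a further 30 min at 37 °C with adenosine before cAMP detection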
Sequence (P29274 whole entry): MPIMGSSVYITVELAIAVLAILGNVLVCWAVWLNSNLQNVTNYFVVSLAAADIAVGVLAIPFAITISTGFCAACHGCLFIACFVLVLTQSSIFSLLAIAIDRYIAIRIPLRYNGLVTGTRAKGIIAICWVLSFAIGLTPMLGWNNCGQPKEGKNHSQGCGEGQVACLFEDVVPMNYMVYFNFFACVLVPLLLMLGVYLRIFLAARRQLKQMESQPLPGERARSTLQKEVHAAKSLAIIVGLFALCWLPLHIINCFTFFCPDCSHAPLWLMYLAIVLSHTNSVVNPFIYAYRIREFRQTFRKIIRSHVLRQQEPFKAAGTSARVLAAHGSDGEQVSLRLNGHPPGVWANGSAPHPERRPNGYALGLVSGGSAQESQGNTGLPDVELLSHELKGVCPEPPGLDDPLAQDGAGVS

// below: answered molecules
Cc1cnc2ccc(-c3nc(C(=O)NCc4cccc(N5CCC(N(C)C)C5)n4)c(N)nc3-c3ncco3)cn12 (single isomer, unassigned) [Cmpd. 235] ... 0.8 nM
Cc1cnc2ccc(-c3nc(C(=O)NC(C)C4CCCO4)c(N)nc3-c3ncco3)cn12 (single isomer, unassigned; isomer 2) [Example 262] ... 12 nM
Cc1cnc2ccc(-c3nc(C(=O)NC[C@H]4CCCO4)c(N)nc3-n3nccn3)cn12 [Cmpd. 229] ... 2.4 nM
CP(C)(=O)c1cccc(F)c1CNC(=O)c1nc(-c2ccc3nccn3c2)c(-c2ncco2)nc1N [Example 96] ... 2.5 nM
Cc1cnc2ccc(-c3nc(C(=O)N[C@@H](C)Cn4ccnn4)c(N)nc3-c3ncco3)cn12 [Example 296] ... 0.9 nM
Cc1cnc2ccc(-c3nc(CNC(=O)[C@@H]4CCCN4C)c(N)nc3-c3ccc(F)cc3)cn12 [Example 156] ... 4.4 nM

Next item in the queue.
Reported IC50 (hA2a/CHO (Homo sapiens (Human), UniProt P29274)) for entry CCn1cc(-c2nc(C(=O)NCc3ccccc3OC)c(N)nc2-c2ccc(F)cc2)ccc1=O [Example 69] is 15 nM

====

target: hADORA1/CHO (hA1 expressing) cells (Homo sapiens (Human), UniProt P30542); test: cell-based; conditions: FLIPR inhibition, 10 μM adenosine, read-out: cAMP & FLIPR IC50 (nM) hA1
Sequence (P30542 whole entry): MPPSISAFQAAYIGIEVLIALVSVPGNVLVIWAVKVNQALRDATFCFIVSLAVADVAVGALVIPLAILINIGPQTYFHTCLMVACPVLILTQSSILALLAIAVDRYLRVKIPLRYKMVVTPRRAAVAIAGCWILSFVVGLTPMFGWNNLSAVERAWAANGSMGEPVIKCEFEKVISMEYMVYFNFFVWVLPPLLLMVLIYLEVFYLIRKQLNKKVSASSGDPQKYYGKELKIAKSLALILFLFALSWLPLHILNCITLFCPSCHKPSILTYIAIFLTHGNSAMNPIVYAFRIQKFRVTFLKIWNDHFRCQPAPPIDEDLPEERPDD
MEASURED QUANTITY: IC50
Phrase the answer as number then unit, nothing more needed.

Cc1cnc2ccc(-c3nc(C(=O)NCC4(C)CCCN4C)c(N)nc3-c3ncco3)cn12 (single isomer, unassigned; isomer 2) ... 1490 nM
CCc1ccccc1CNC(=O)c1nc(-c2cc(C)nc(C)c2)c(-c2ccc(F)cc2)nc1N ... 1200 nM
Nc1nc(-c2ccc(F)cc2)c(-c2ccc(=O)n(C3CC3)c2)nc1C(=O)NCc1c(F)cccc1F ... 31 nM
Cc1cnc2ccc(-c3nc(C(=O)NC[C@@H]4CCN(C(=O)C5CC5)C4)c(N)nc3-c3ncco3)cn12 ... 7540 nM
CNc1cccnc1CNC(=O)c1nc(-c2ccc(=O)n(C)c2)c(-c2ncco2)nc1N ... 488 nM

# IC50 (compound: "Cc1cnc2ccc(-c3nc(C(=O)NCc4cnccc4N(C)C)c(N)nc3-c3ncco3)cn12" ) is 35 nM

# IC50 (compound: "Nc1ccnc(CNC(=O)c2nc(-c3ccc4nccn4c3)c(-c3ncco3)nc2N)n1" ) is 10000 nM

# IC50 (compound: "Cc1cnc2ccc(-c3nc(C(=O)NCC4CCOCC4)c(N)nc3-c3ncco3)cn12" ) is 2960 nM

# IC50 (compound: Cc1cnc2ccc(-c3nc(CNC(=O)C4CCCO4)c(N)nc3-c3ccc(F)cc3)cn12 (stereo in doubt) ) is 6.7 nM

# IC50 (compound: "Cc1cnc2ccc(-c3nc(C(=O)NCCN(C)c4ccccn4)c(N)nc3-c3ncco3)cn12" ) is 108 nM

====

Each item that follows carries a reported log10 of IC50.
biological target: hA2b/CHO (Homo sapiens (Human)); assay: cAMP inhibition assay in hA2b/CHO cells, 10 μM adenosine; type: cell-based; conditions: read-out: cAMP & FLIPR IC50 (nM) hA2b;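 note: cells exposed to compound 30 min at 37 °C, then stimulated with adenosine a further 30 min, cAMP read after 60 min at room temperature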
Sequence (P29275 whole entry): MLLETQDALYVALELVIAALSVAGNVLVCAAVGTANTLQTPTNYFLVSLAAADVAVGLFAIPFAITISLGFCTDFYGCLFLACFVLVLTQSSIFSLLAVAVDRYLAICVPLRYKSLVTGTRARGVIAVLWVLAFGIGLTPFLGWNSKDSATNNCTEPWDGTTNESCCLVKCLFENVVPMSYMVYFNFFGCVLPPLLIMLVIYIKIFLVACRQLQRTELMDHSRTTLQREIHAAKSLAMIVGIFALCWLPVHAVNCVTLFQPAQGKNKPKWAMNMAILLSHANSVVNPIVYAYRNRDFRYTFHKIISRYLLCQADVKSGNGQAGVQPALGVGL
Base-10 log of IC50, unit nM.

// below: answered molecules
Cc1cnc2ccc(-c3nc(C(=O)NCC4(C)CCOC4)c(N)nc3-c3ncco3)cn12 (single isomer, unassigned; isomer 2) [Example 252] ... 2.91
Nc1nc(-c2ncco2)c(-c2ccc(=O)n(CCO)c2)nc1C(=O)NCc1c(F)cccc1F ... 1.58
Cc1cnc2ccc(-c3nc(C(=O)NC[C@@H]4CCCN4C)c(N)nc3-c3ccc(F)cc3)cn12 ... 2.97
CP(C)(=O)c1cccc(F)c1CNC(=O)c1nc(-c2ccc3nccn3c2)c(-c2ncco2)nc1N ... 2.21
Cn1cc(-c2nc(C(=O)NCc3c(F)cccc3F)c(N)nc2-n2nccn2)ccc1=O ... 2.31

# log10 of IC50 (molecule: "Cc1cnc2ccc(-c3nc(C(=O)NCc4cccc(N[C@H]5C[C@H](N(C)C)C5)n4)c(N)nc3-c3ncco3)cn12" ) is 2.00

# log10 of IC50 (molecule: "Cn1cc(-c2nc(C(=O)NCc3c(F)cccc3Cl)c(N)nc2-c2ncco2)ccc1=O" ) is 1.04

# log10 of IC50 (molecule: "Cn1cc(-c2nc(C(=O)NCc3ncccc3OC(F)F)c(N)nc2-c2ccc(F)cc2)ccc1=O" ) is 1.79

# log10 of IC50 (molecule: "Cc1ccc(-c2nc(N)c(C(=O)NCc3c(F)cccc3F)nc2-c2ccc(=O)n(C)c2)o1" ) is 1.96

# log10 of IC50 (molecule: "Cc1cnc2ccc(-c3nc(C(=O)N[C@H]4CCN(C)C4)c(N)nc3-c3ccc(F)cc3)cn12" ) is 3.55
